# ASSAY NAME: Exposure after intraperitoneal administration in mice
# Type: in vivo
# SETTINGS: male, mouse; brain, CD-1 mice, 3.16 mg/kg ip
ATTRIBUTE MEASURED: Cmax
State the value with its unit after it.

1) CN[C@]1(c2ccccc2)CCCCC1=O [Compound 14S]
3370 ng/mL

Now for another entry.
What Cmax value was documented for this molecule, CN[C@@]1(c2ccccc2)CCCCC1=O [Compound 14R] ?
3320 ng/mL

---

AUC(0-t) for assorted compounds
# ASSAY NAME: Oral bioavailability in rats, Method B
# Format: in vivo
# SETTINGS: male, rat; plasma, Sprague Dawley rats, 10 mg/kg po, Method B; read-out: AUC0-last (po) (converted)
# output: bare number, implied unit ng·h/mL

Here is how some compounds turned out for AUC(0-t).
1. [2H]C([2H])([2H])N[C@@]1(c2ccccc2)CCCCC1=O [Compound 88R]
335
2. O=C1CCCCC1(c1ccccc1)N1CCCC1 (racemic)
563
3. O=C1CCCC[C@@]1(c1ccccc1)N1CCC1 [Compound 84S]
77
4. CN[C@@]1(c2ccccc2)CCCCC1=O [Compound 14R]
237
5. COCCNC1(c2ccccc2)CCCCC1=O (racemic)
353

Field: next compound
Item O=C1CCCC[C@]1(c1ccccc1)N1CCC1 [Compound 84R] has what recorded AUC(0-t)?
11.9
